Recorded GI50 by entry
Tested on: RPMI-8226
protocol description: NCI tumour cell line growth inhibition, 48 h
The source made the active and inactive calls. No stated cut-off is given here; in the data, active = GI50 up to about 1.1 µM and inactive = higher.

{"compound": "OC(c1ccc(Br)cc1)(c1cccs1)C1CC1 (stereo not given)", "system name": "RPMI-8226", "GI50": "21.6 µM (inactive)"}
{"compound": "COc1ccc(CCn2ccc(=O)c(O)c2C)cc1OC", "system name": "RPMI-8226", "GI50": "34 µM (inactive)"}
{"compound": "O=[N+]([O-])c1ccc(-c2nc(/C=N/N3CCCCC3)cs2)o1", "system name": "RPMI-8226", "GI50": "19.1 µM (inactive)"}
{"compound": "[N-]=[N+]=Nc1cccc(-c2nnc(Cl)cc2O)c1", "system name": "RPMI-8226", "GI50": "> 100 µM (inactive)"}
{"compound": "COc1ccc(C2Oc3c(cccc3OC)C=C2[N+](=O)[O-])cc1 (stereo not given)", "system name": "RPMI-8226", "GI50": "2.01 µM (inactive)"}
{"compound": "c1ccc2c(c1)cc1n2CCc2c-1[nH]c1ccccc21", "system name": "RPMI-8226", "GI50": "> 10 µM (inactive)"}
{"compound": "O=C1c2ccccc2-c2ccc(/N=[N+](/[O-])c3ccc4c(c3)C(=O)c3ccccc3-4)cc21", "system name": "RPMI-8226", "GI50": "> 100 µM (inactive)"}
{"compound": "NNC(=O)C1(NC(=O)c2ccccc2)C(c2ccccc2)C(c2ccccc2)=NN1c1ccccc1 (stereo not given)", "system name": "RPMI-8226", "GI50": "21.1 µM (inactive)"}
{"compound": "CCOP(=O)(OCC)C(Nc1ccc(F)cc1)c1cccc([N+](=O)[O-])c1 (stereo not given)", "system name": "RPMI-8226", "GI50": "76.9 µM (inactive)"}
{"compound": "NC(=O)N/N=C1\\C[C@H]2CCCC[C@H]2C1", "system name": "RPMI-8226", "GI50": "> 100 µM (inactive)"}
{"compound": "CCCN1C(=O)CC(C)N(Cc2ccccc2Cl)C1=S (stereo not given)", "system name": "RPMI-8226", "GI50": "24.8 µM (inactive)"}
{"compound": "CN/C(=N\\C#N)N(Cc1ccccc1)Cc1ccccc1", "system name": "RPMI-8226", "GI50": "> 100 µM (inactive)"}
{"compound": "O=c1/c(=C/c2ccc3c(c2)OCO3)sc2nnc(-c3ccco3)n12", "system name": "RPMI-8226", "GI50": "> 100 µM (inactive)"}
{"compound": "O=C1O[C@H]2[C@H](OC(=O)c3cc(O)c(O)c(O)c3)[C@@H](OC(=O)c3cc(O)c(O)c4c3[C@@H]3C1=CC(=O)C(O)(O)C3(O)O4)[C@H](OC(=O)c1cc(O)c(O)c(O)c1)O[C@@H]2COC(=O)c1cc(O)c(O)c(O)c1 (stereo not given in full) [TERCHEBIN]", "system name": "RPMI-8226", "GI50": "51.5 µM (inactive)"}
{"compound": "CCOC(=O)COC1=Nc2cc(OC)c(OC)c3nc(Cl)cc(c23)C1=O", "system name": "RPMI-8226", "GI50": "1.52 µM (inactive)"}
{"compound": "O=C(CCCn1ccnc1[N+](=O)[O-])NCCn1ccnc1[N+](=O)[O-]", "system name": "RPMI-8226", "GI50": "> 100 µM (inactive)"}
{"compound": "Clc1ccc(Cc2nc3cc(Cl)ccc3o2)cc1", "system name": "RPMI-8226", "GI50": "30.9 µM (inactive)"}
{"compound": "O=C(Nc1cccc(-c2cn3ccccc3n2)c1)c1ccncc1", "system name": "RPMI-8226", "GI50": "17.1 µM (inactive)"}
{"compound": "CC(=O)O[C@H]1CC[C@@]2(C)C(=CC[C@@H]3[C@@H]2CC[C@]2(C)NC(=O)/C(=C\\c4ccccc4)C[C@@H]32)C1", "system name": "RPMI-8226", "GI50": "12.3 µM (inactive)"}
{"compound": "S=C1CC(c2ccccc2)Sc2ccc(Cl)cc2N1 (stereo not given)", "system name": "RPMI-8226", "GI50": "90.4 µM (inactive)"}
{"compound": "COC(OC)C(O)C1OC=CC1n1cnc2c(N)ncnc21 (stereo not given)", "system name": "RPMI-8226", "GI50": "> 100 µM (inactive)"}
{"compound": "COc1ccc(CC[N+]2(C)COc3cc4oc(=O)cc(C)c4cc3C2)cc1OC (stereo not given)", "system name": "RPMI-8226", "GI50": "> 100 µM (inactive)"}
{"compound": "CC(C(=O)O)c1cnn(-c2ccccc2)c1-n1cccc1 (stereo not given)", "system name": "RPMI-8226", "GI50": "> 100 µM (inactive)"}
{"compound": "COc1cc(CC2c3cc(OC)c(OC)cc3CCN2C)c(C(=O)O)cc1OC (stereo not given)", "system name": "RPMI-8226", "GI50": "> 100 µM (inactive)"}
{"compound": "O=C1[C@@H](O)[C@@H]2CCCC[C@@]23CCCN13", "system name": "RPMI-8226", "GI50": "> 100 µM (inactive)"}

Values compiled from ChEMBL document CHEMBL1201862.
